# TEST TARGET: Proteasome Macropain subunit MB1 (Homo sapiens)
# Sequence (P28074 whole entry): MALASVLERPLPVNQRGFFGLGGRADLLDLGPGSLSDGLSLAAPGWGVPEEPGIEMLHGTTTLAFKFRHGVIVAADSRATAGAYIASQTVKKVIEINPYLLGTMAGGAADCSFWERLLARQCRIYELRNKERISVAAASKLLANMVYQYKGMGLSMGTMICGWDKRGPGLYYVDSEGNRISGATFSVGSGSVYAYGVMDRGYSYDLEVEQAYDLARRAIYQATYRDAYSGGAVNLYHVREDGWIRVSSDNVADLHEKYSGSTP
# PROTOCOL SUMMARY: Inhibition of chymotrypsin-like activity of human 20S proteasome pretreated for 15 mins followed by Suc-Leu-Leu-Val-Tyr-AMC substrate addition by fluorescence assay
REPORTED METRIC: IC50 (µM)

CC(C)(C)CNC(=O)C[C@H](NC(=O)N1CCC(C(=O)Nc2ccc(C(F)(F)F)cc2)CC1)C(=O)N[C@@H](CCc1ccccc1)C(=O)NCc1ccccc1Cl
0.192

(a) CC(C)(C)CNC(=O)C[C@H](NC(=O)N1CCC(C(=O)Nc2cccnc2)CC1)C(=O)N[C@@H](CCc1ccccc1)C(=O)NCc1ccccc1Cl
(b) CC(C)(C)CNC(=O)C[C@H](NC(=O)N1CCC(NC(=O)c2cnccn2)CC1)C(=O)N[C@@H](Cc1ccccc1)C(=O)NCc1ccccc1Cl
(c) CC(C)(C)CNC(=O)C[C@H](NC(=O)N1CCC(C(=O)Nc2cnccn2)CC1)C(=O)N[C@@H](CCc1ccccc1)C(=O)NCc1ccc2c(c1)OCO2
(d) COc1ccc(NC(=O)C2CCN(C(=O)N[C@@H](CC(=O)NCC(C)(C)C)C(=O)N[C@@H](CCc3ccccc3)C(=O)NCc3ccccc3Cl)CC2)cc1
(e) CC(C)(C)CNC(=O)C[C@H](NC(=O)N1CCC(C(=O)Nc2ccccn2)CC1)C(=O)N[C@@H](CCc1ccccc1)C(=O)NCc1ccccc1Cl
Put these in order: smallest IC50 first, largest last. Provide your answer as the labels ordered per the instruction. a, e, c, d, b
